# Test system: EKVX NSCLC
# assay_summary: NCI tumour cell line growth inhibition, 48 h
assay_endpoint: TGI

Please review the entries below; each comes with its answer.
- CCC(C#N)NC(=O)NC(C#N)CC (stereo unspecified): > 100 µM
- CN(O)C(=O)c1cccc(Cl)c1: > 100 µM
- CCn1c(CO)nn(-c2cc(O[C@@H](C)C(F)(F)F)c(C(=O)Nc3c(F)cccc3Cl)cc2F)c1=O: > 100 µM
- C/C=C/C(O)P1(=O)N(Cc2ccccc2)[C@@H]2CCCC[C@H]2N1Cc1ccccc1 (stereo partly specified): > 25 µM
- Oc1cn(-c2ccc(Cl)cc2)nc1-c1n[nH]c(=S)n1C1CCCCC1: > 100 µM
- Cc1ccc(C2(O)CC(c3ccc([N+](=O)[O-])o3)=NN2C(=O)COc2ccc(Cl)cc2)cc1 (stereo unspecified): 18.8 µM
- O=C(/C=C/c1cc(CN2CCOCC2)c(O)c2ncccc12)c1cc(CN2CCOCC2)c(O)c2ncccc12: > 100 µM
- O=c1nc2c(c(-c3ccccc3Cl)[nH]1)COC/C2=C\c1ccccc1Cl: 97.4 µM
- COc1ccc(OC)c2c(/C=C/c3ccc(N(C)C)cc3)ccnc12: > 10 µM
- CC(C)CNC(=O)O: > 100 µM

Note: attention shifts to another entry.
Problem: Respond only with TGI recorded for "COC(=O)C1=C(C(=O)OC)SC2(S1)C1=C(CCCC1)SC(C(=O)OC)=C2C(=O)OC"
Solution: 26.6 µM

====

# Tested on: EKVX NSCLC
# assay_summary: NCI tumour cell line growth inhibition, 48 h
assay_endpoint: TGI

- Cc1cc(N/N=C/c2nc(-c3ccc(Br)cc3)oc2C)c2cc(Br)ccc2n1: 38.5 µM
- COc1cc(Nc2c3ccccc3nc3ccccc23)ccc1NS(C)(=O)=O: 23.1 µM
- CCOP(=O)(OCC)c1c(C(=O)OC)cc(=O)[nH]c1-c1ccc(C)cc1: 17 µM
- NCCN=C(Nc1ccccc1)Nc1ccccc1: > 100 µM
- COC(=O)/C(C=O)=C/Sc1ccccc1: > 100 µM

Problem: Look up and report measured TGI (EKVX NSCLC) for the following molecule: NP(=O)(OCC1=CC(=O)c2ccccc2C1=O)N(CCBr)CCBr (stereo unspecified)
Solution: 34.6 µM

====

Measured TGI, listed per entry for reference.
# Test system: EKVX NSCLC
# assay_summary: NCI tumour cell line growth inhibition, 48 h

Guide cases for TGI, answers given:
- C[C@]12CCc3nc(Nc4ccccc4)sc3C1=CC[C@@H]1[C@@H]2CC[C@]2(C)/C(=N/NC(N)=S)CC[C@@H]12: > 100 µM
- Cc1cc(S(=O)(=O)N/N=C(\Sc2cc(Cl)c(C)cc2S(N)(=O)=O)c2ccc(Cl)cc2)c(Cl)cc1Cl: > 100 µM
- COc1ccc(Nc2nc(NS(=O)(=O)c3cc(C)c(Cl)cc3S)n[nH]2)cc1: > 100 µM
- O=C(CSC(c1ccccc1)c1ccccc1)N/N=C/c1ccc(Cl)cc1Cl: > 100 µM
- COC(=O)/C(C#N)=C1\CCC(O)N1 (stereo unspecified): > 100 µM

# next compound below
Problem: Return reported TGI for target or system EKVX NSCLC, item "CN[C@@H](C)[C@H](NC)c1ccccc1" .
Solution: > 100 µM

# credit: PubChem BioAssay (NCI)
